B1: TPR 5TU (parent)
chain: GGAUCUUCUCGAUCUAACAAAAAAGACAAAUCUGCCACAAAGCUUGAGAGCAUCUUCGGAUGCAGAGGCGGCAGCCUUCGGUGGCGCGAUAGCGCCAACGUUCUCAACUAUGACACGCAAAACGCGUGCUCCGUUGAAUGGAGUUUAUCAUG

# Variants of: B1
# measurement.description: polymerase ribozyme fitness, log enrichment relative to wild type (log ratio); higher = more active; in vitro selection for triplet polymerase activity
Fewer inactive variants are shown than the library holds.
Kindly state polymerase ribozyme fitness (log ratio) for each of the entries shown.

Example results:
> print(dat)
                            mutant  result
1           A98U U101G C129U U139C  ≤ -4.2
2                       A29G U111A  ≤ -4.2
3  A41G C51U A89C C95A U135C U148A  ≤ -4.2
4  A66C G74U G81C C87A C118A G124A  ≤ -4.2
5                C108A G143U U144G  ≤ -4.2

I'm hoping you can list polymerase ribozyme fitness (log ratio) for every variant here, please.
1. A20C C36A A49U U56G A91U U146C
2. U56A C93A
3. U61A G84U C114U
4. A17G C96A A97G U101C U148C

["≤ -4.2", -2.63, -3.85, -3.67]

I'm hoping you can list polymerase ribozyme fitness (log ratio) for every variant here, please.
1. A39G G80A G126U A138G
2. C43G U56G C96U U139G U148G

1. ≤ -4.2
2. ≤ -4.2

meta.source: the RNAGym collection of RNA variant scans (doi:10.1073/pnas.2313332121)
